Test system: OVCAR-4 ovarian
ASSAY_NAME: NCI tumour cell line growth inhibition, 48 h
Give measured TGI for each item. Keep answers brief.

Worked cases, TGI given:
COMPOUND	ASSAY_TARGET	TGI
O=C(O)CCNS(=O)(=O)c1ccc2ccccc2c1	OVCAR-4 ovarian	> 100 µM
O=C1CSC(c2ccccc2Cl)N1c1nnc(Cn2cnnc2)o1 (stereo not given)	OVCAR-4 ovarian	> 100 µM
CCN(CC)CCCC(C)Nc1cc(-c2cccc(OC(F)(F)F)c2)nc2ccc(N3CCCC3)cc12 (stereo not given)	OVCAR-4 ovarian	> 100 µM

Below are 8 compounds. Give each one its TGI.
1. O=C(/C=C/C=C/c1ccccc1)c1ccco1
2. Cc1cc(N(CCOS(C)(=O)=O)CCOS(C)(=O)=O)ccc1C(=O)O
3. COc1ccccc1NC(=O)CC(=O)NN
4. Cc1ccccc1NC(=O)CC(=O)NNC(Sc1ccccc1)c1cc(N=Nc2ccc(Br)cc2)ccc1O (stereo not given)
5. COCCOc1cc(C)cc(/C=C(C)/C=C/C2=C(C)CCCC2(C)C)n1
6. COC1=CC(C2c3cc4c(cc3[C@@H](Nc3ccc(F)cc3)C3COC(=O)[C@H]23)OCO4)=CC(=O)C1=O (stereo not given in full)
7. Cc1ncc(COP(=O)(O)O)c(/C=C2\SC(=S)NC2=O)c1O
8. COc1ccc(-c2cncn2-c2cc(OC)c(OC)c(OC)c2)cc1

Key:
1: > 100 µM; 2: > 100 µM; 3: > 100 µM; 4: > 10 µM; 5: > 100 µM; 6: > 61.2 µM; 7: > 100 µM; 8: > 100 µM

* * *

Give measured GI50 for each item. Keep answers brief.
Test system: HL-60(TB) leukemia
ASSAY_NAME: NCI tumour cell line growth inhibition, 48 h

Below are 3 molecules. Give each one its GI50.
1. O=C(/C=C/C=C/c1ccccc1)c1ccco1
2. NC(=O)c1ccc(Oc2nccc(-c3c(-c4ccc(F)cc4)ncn3C3CCNCC3)n2)cc1
3. COc1cc(OC)cc(C2C3=C(COC3=O)Nc3cc(OC)ccc32)c1 (stereo unspecified)

Key:
1. 10 µM
2. > 25 µM
3. < 0.01 µM

Below are 3 molecules. Give each one its GI50.
1. COc1ccc(-c2cncn2-c2cc(OC)c(OC)c(OC)c2)cc1
2. COc1ccc(-c2nc(-c3nc4ccc(C)cc4[nH]3)cc3c2[nH]c2ccccc23)cc1
3. CN(C)CCCn1c(=O)c2ccccc2c2cnc3[nH]ccc3c21

Key:
["1.72 µM", "4.11 µM", "3.27 µM"]

* * *

Tested on: SK-OV-3 ovarian
ASSAY_NAME: NCI tumour cell line growth inhibition, 48 h
Give measured log10 of TGI for each item. Keep answers brief.
The figures below represent log10 of TGI, where TGI is stated in µM.

Worked cases, log10 of TGI given:
STRUCTURE_STRING	ASSAY_TARGET	log10 of TGI
Cc1c([C@H](C)[C@@H]2NC[C@@H](C)C[C@H]2O)ccc2c1C[C@H]1[C@H]2CC=C2C[C@@H](O)CC[C@@]21C	SK-OV-3 ovarian	1.89
COc1ccc(/C=C/c2c(C(=O)/C=C/c3ccc(C(F)(F)F)cc3)c(C)nc3ccccc23)cc1	SK-OV-3 ovarian	0.76
CC/C(Cc1ccccc1)=C(\c1ccc(OCCN2CCCC2)cc1)c1ccc(OC(=O)NCc2ccccc2)cc1	SK-OV-3 ovarian	1.39
S=C1Cc2c(-c3ccc(Br)cc3)cc(-c3ccccc3)nc2-c2ccccc2N1	SK-OV-3 ovarian	0.51
CC(C)=CCC[C@@H](C)C1=C(O)C(Nc2ccccc2I)=C(C)C(=O)C1=O	SK-OV-3 ovarian	1.79

Turning now to a further molecule:
Exercise: // returns reported log10 of TGI for input `Cc1cc(S(=O)(=O)/N=C(/NN)Nc2ccc(Cl)cc2)c(S)cc1Cl`
Key: 1.69

* * *

Give measured GI50 for each item. Keep answers brief.
Tested on: UACC-257 melanoma
ASSAY_NAME: NCI tumour cell line growth inhibition, 48 h

COMPOUND	ASSAY_TARGET	GI50
CC(=O)OC12C=C(C)C(C(C)C1)C1C(=O)N(CCN3CCCCC3)C(=O)C12 (stereo not given)	UACC-257 melanoma	> 50 µM

Below are 2 compounds. Give each one its GI50.
1. COc1cc(C2C3=C(COC3=O)N(CCO)c3cc4c(cc32)OCCO4)cc(OC)c1OC (stereo not given)
2. O=C(NCC(F)(F)F)Nc1cccc(-c2cnc3cc(-c4ccc(F)cc4)ccn23)c1

Key:
0.384 µM
14.2 µM

Below are 2 compounds. Give each one its GI50.
1. COc1cc2c(c(OC)c1OC)-c1ccc(SC)c(=O)cc1[C@@H](NCc1ccc([N+](=O)[O-])cc1)CC2
2. [N-]=[N+]=NCCCn1c2c(c3ccc([N+](=O)[O-])cc3c1=O)C(=O)c1cc(Br)ccc1-2

Key:
1: 0.0771 µM; 2: > 100 µM

* * *

Test system: UO-31 renal
ASSAY_NAME: NCI tumour cell line growth inhibition, 48 h; in the data active means GI50 below about 0.43 µM; inactive means the rest
Reply using exactly one outcome from t = active, f = inactive

Exercise: Please share the test call associated with `CS(=O)(=O)Nc1cccc(-c2ccc3ncnc(Nc4ccc(F)c(Cl)c4)c3c2)c1` .
Key: f

* * *

Tested on: EKVX NSCLC
ASSAY_NAME: NCI tumour cell line growth inhibition, 48 h; in the data active = GI50 below about 0.43 µM; inactive = the rest
Reply using exactly one outcome from active, inactive

STRUCTURE_STRING	LABEL
Cc1c(C#N)cccc1[C@@H](C)Nc1nnc(C)c2cnc(N3CCOCC3)cc12	inactive
COc1ccc(C(=O)c2cc(C)c(OC)c(C)c2)c(OC)c1NC(C)=O	active
CS(=O)(=O)c1ccc(Nc2nc(N[C@H]3CCCC[C@H]3N)nc3cc[nH]c(=O)c23)cc1	inactive
CCC[CH2][Sn]([CH2]CCC)([S]C#N)[S]C#N	inactive

Exercise: Please share the test call associated with `C#C[C@@]1(O)[C@@H](CO)O[C@@H](n2cc(I)c3c(N)ncnc32)[C@@H]1O` .
Key: active

Exercise: Please share the test call associated with `NC(=O)c1ccc(Oc2nccc(-c3c(-c4ccc(F)cc4)ncn3C3CCNCC3)n2)cc1` .
Key: inactive

Exercise: Please share the test call associated with `CC(=O)N1CCN(CCNC(=O)n2cc(-c3ccncc3)c(-c3cc(O)cc(Cl)c3)n2)CC1` .
Key: inactive

Exercise: Please share the test call associated with `CCCc1cc(=O)n2c(C(=O)Nc3ccc(F)cc3)c(C(=O)Nc3ccc(F)cc3)sc2n1` .
Key: inactive

Exercise: Please share the test call associated with `CC/C(Cc1ccccc1)=C(\c1ccc(OCCN2CCCC2)cc1)c1ccc(OC(=O)NCc2ccccc2)cc1` .
Key: inactive

* * *

Test system: SK-MEL-28 melanoma
ASSAY_NAME: NCI tumour cell line growth inhibition, 48 h; in the data active = GI50 below about 0.43 µM; inactive = the rest
Reply using exactly one outcome from active, inactive

# example entries with known answers
COMPOUND	ASSAY_TARGET	LABEL
C=C1C(O)C2CC(C)(CO)C(=O)C2=C(CC(C)C)C12CC2 (stereo not given)	SK-MEL-28 melanoma	inactive
Cn1cc(C2=C(c3c[nH]c4ccccc34)C(=O)NC2=O)c2ccccc21	SK-MEL-28 melanoma	inactive
O=C(NCCCc1cn[nH]c1)c1ccc(-c2ccncc2)c(C#Cc2ccc(F)cc2)c1	SK-MEL-28 melanoma	inactive
CCCc1cc(=O)n2c(C(=O)Nc3ccc(F)cc3)c(C(=O)Nc3ccc(F)cc3)sc2n1	SK-MEL-28 melanoma	inactive
COc1ccc(-c2nc(-c3nc4ccc(C)cc4[nH]3)cc3c2[nH]c2ccccc23)cc1	SK-MEL-28 melanoma	inactive

Exercise: Please share the test call associated with `Cc1cc(-c2c(F)cc3c4nn([C@H]5CC[C@@H](N(C)C)CC5)c(=O)c-4cn(C4CC4)c3c2F)cc(C)n1` .
Key: active

Exercise: Please share the test call associated with `COC(=O)c1c(-c2cccs2)oc(-c2cccs2)c1C(=O)OC` .
Key: inactive

Exercise: Please share the test call associated with CCCCCCCCCCCCC(O)c1ccco1 (stereo not given) .
Key: inactive

Exercise: Please share the test call associated with `CCCOC(=O)c1c(C)n(C)c2scc[n+]12` .
Key: inactive

Exercise: Please share the test call associated with N#CC1=C(N)Oc2c(ccc3ccccc23)C1c1cc(=O)oc2ccc(Cl)cc12 (stereo not given) .
Key: inactive

* * *

System: A549 NSCLC
ASSAY_NAME: NCI tumour cell line growth inhibition, 48 h; in the data active = GI50 below about 0.43 µM; inactive = the rest
Reply using exactly one outcome from y = active, n = inactive

Exercise: Please share the test call associated with C=C1C(O)C2CC(C)(CO)C(=O)C2=C(CC(C)C)C12CC2 (configuration not stated) .
Key: n

Exercise: Please share the test call associated with `CCCCCCSSC(=S)N(CC)CC` .
Key: n

Exercise: Please share the test call associated with `Cc1cc(N(CCOS(C)(=O)=O)CCOS(C)(=O)=O)ccc1C(=O)O` .
Key: n

Exercise: Please share the test call associated with `ClCc1ccccc1Cn1cnc2ncnc(Cl)c21` .
Key: n

Exercise: Please share the test call associated with COc1ccccc1C1C(C#N)=C(N)Oc2n[nH]c(C)c21 (configuration not stated) .
Key: n

Exercise: Please share the test call associated with `CC(=O)N1CCN(CCNC(=O)n2cc(-c3ccncc3)c(-c3cc(O)cc(Cl)c3)n2)CC1` .
Key: n

Exercise: Please share the test call associated with CC(=O)OC12C=C(C)C(C(C)C1)C1C(=O)N(CCN3CCCCC3)C(=O)C12 (configuration not stated) .
Key: n

Exercise: Please share the test call associated with `CN=C1C=CC(=C(c2ccc(N(C)C)cc2)c2ccc(N(C)C)cc2)C=C1` .
Key: y

Exercise: Please share the test call associated with `O=C(/C=C/C=C/c1ccccc1)c1ccco1` .
Key: n

The values you see were collected from PubChem BioAssay (NCI).
